- Test system: Bacillus subtilis ATCC 6633
- assay notes: MIC, standard method of Japanese Chemotherapy Academy
- Type: cell-based
- experimental conditions: standard method of Japanese Chemotherapy Academy
assay endpoint: MIC against bacillus subcillus ATCC 6633

Answered examples (5):
chem smiles: Cc1ccc(COC(=O)c2ccc(-c3ccc(OC(=O)[C@H]4CC[C@H](CNC(=N)N)CC4)c(Br)c3)cc2)cc1.Cl
assay endpoint: MIC against bacillus subcillus ATCC 6633
measured result: > 25 µg/mL
//
chem smiles: Cc1ccc(COC(=O)c2ccc(-c3ccc(OC(=O)[C@H]4CC[C@H](CNC(=N)N)CC4)cc3)cc2)cc1.Cl
assay endpoint: MIC against bacillus subcillus ATCC 6633
measured result: > 25 µg/mL
//
chem smiles: Cl.N=C(N)NC[C@H]1CC[C@H](C(=O)Oc2ccc(-c3ccc(C(=O)OCC4CCCCC4)cc3)cc2)CC1
assay endpoint: MIC against bacillus subcillus ATCC 6633
measured result: 25 µg/mL
//
chem smiles: COc1ccc(COC(=O)c2ccc(-c3ccc(OC(=O)[C@H]4CC[C@H](CNC(=N)N)CC4)cc3)cc2)cc1.Cl
assay endpoint: MIC against bacillus subcillus ATCC 6633
measured result: 25 µg/mL
//
chem smiles: Cl.N=C(N)NC[C@H]1CC[C@H](C(=O)Oc2ccc(-c3ccc(C(=O)OCc4ccc(F)cc4)cc3)cc2)CC1
assay endpoint: MIC against bacillus subcillus ATCC 6633
measured result: > 25 µg/mL

Here is another compound to look at.
*Q* Name the reported MIC against bacillus subcillus ATCC 6633 value associated with the compound `CC(C)(C)c1ccc(COC(=O)c2ccc(-c3ccc(OC(=O)[C@H]4CC[C@H](CNC(=N)N)CC4)cc3)cc2)cc1.Cl`
*A* > 25 µg/mL
